# assay_explanation: determination of pKa of the sulfonamide group by UV-VIS spectra at various pH
# Format: physicochemical
# condition_set: calculated from spectra at various pH, 37 °C
assay_metric: pKa
Numbers only.

Examples from the recorded data:
COC(=O)c1cc(S(N)(=O)=O)c(S(=O)(=O)C2CCCCC2)cc1Br [Compound 8b]; 9.9
COC(=O)c1cc(S(N)(=O)=O)c(Cl)cc1SC1CCCCC1 [Compound 5b]; 9.4
COC(=O)c1cc(S(N)(=O)=O)c(SC2CCCCC2)cc1Cl [Compound 3b]; 9.6
COC(=O)c1cc(S(N)(=O)=O)c(SC2CCCCCCCCCCC2)cc1Cl [Compound 3e]; 9.6

// next entry
Given the molecule COC(=O)c1cc(S(N)(=O)=O)c(SCc2ccccc2)cc1Cl [Compound 3c] , what is its reported pKa?
9.5

###

# target_or_test_system: CAII (Homo sapiens)
# assay_explanation: fluorescent thermal shift assay (FTSA), CAII
# Type: binding
# condition_set: converted from Kd_obs, 37 °C, pH 7.0, FTSA
Record form. Attribute: ΔGobs CAII. Fill in for each entry.
Give bare numbers, in kcal/mol.

Some compounds with known ΔGobs CAII results, for comparison:
COC(=O)c1cc(S(N)(=O)=O)c(SC2CCCCCCCCCCC2)cc1Cl; -9.08
COC(=O)c1cc(S(N)(=O)=O)c(SCc2ccccc2)cc1Cl; -9.87
COC(=O)c1cc(S(N)(=O)=O)c(Cl)cc1S(=O)(=O)C1CCCCC1; -13
COC(=O)c1cc(S(N)(=O)=O)c(S(=O)(=O)C2CCCCC2)cc1Cl; -6.09
COC(=O)c1cc(S(N)(=O)=O)c(Cl)cc1SCCc1ccccc1; -10.7

For each listed entry, give its ΔGobs CAII.
1. COC(=O)c1cc(S(N)(=O)=O)c(Cl)cc1S(=O)(=O)c1cccc2ccccc12
2. COC(=O)c1cc(S(N)(=O)=O)c(SCCc2ccccc2)cc1Cl
3. COC(=O)c1cc(S(N)(=O)=O)c(Cl)cc1Cl [Compound 1, Methyl 2,4-dichloro-5-sulfamoyl-benzoate]
4. COC(=O)c1cc(S(N)(=O)=O)c(Br)cc1Sc1ccccc1
5. COC(=O)c1cc(S(N)(=O)=O)c(Cl)cc1S(=O)(=O)c1ccccc1

1: -12.6; 2: -9.61; 3: -10.1; 4: -10.1; 5: -12.8

So what does the record say about ΔGobs CAII for COC(=O)c1cc(S(N)(=O)=O)c(Cl)cc1SC1CCCCC1 ?
-10.9

###

# target_or_test_system: UniProt:P23280
# Sequence (P23280 18-308): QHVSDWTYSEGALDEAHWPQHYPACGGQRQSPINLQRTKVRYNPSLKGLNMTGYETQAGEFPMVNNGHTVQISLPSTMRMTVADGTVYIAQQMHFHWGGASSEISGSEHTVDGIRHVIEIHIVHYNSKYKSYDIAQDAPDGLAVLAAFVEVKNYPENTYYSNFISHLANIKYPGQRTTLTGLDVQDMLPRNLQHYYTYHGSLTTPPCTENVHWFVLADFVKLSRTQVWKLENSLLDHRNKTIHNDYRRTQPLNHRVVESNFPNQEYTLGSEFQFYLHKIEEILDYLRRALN
# assay_explanation: fluorescent thermal shift assay (FTSA), CAVI
# Type: binding
# condition_set: converted from Kd_obs, 37 °C, pH 7.0, FTSA
assay_metric: ΔGobs CAVI (kcal/mol)
One number for each entry, in kcal/mol.

Would you please look over these solved cases?
COC(=O)c1cc(S(N)(=O)=O)c(SC2CCCCC2)cc1Br; -8.87
COC(=O)c1cc(S(N)(=O)=O)c(SCc2ccccc2)cc1Cl; -9.15

From here, focus on the item given below.
Missing value: ΔGobs CAVI, UniProt:P23280, entry COC(=O)c1cc(S(N)(=O)=O)c(Br)cc1Sc1ccccc1 . Fill in?
-9.06

###

I'd appreciate it if you could supply ΔGintr CAVB values for the items below.
# target_or_test_system: CAVB (Homo sapiens, UniProt Q9Y2D0)
# Sequence (Q9Y2D0 34-317): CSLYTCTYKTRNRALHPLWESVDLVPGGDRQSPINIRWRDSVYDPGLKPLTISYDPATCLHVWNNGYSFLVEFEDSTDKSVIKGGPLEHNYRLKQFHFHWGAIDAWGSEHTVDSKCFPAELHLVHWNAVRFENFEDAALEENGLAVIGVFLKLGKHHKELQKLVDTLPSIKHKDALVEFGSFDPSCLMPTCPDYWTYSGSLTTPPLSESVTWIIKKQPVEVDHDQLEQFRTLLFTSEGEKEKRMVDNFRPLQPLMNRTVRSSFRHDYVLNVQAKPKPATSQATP
# assay_explanation: fluorescent thermal shift assay (FTSA), CAVB
# Format: binding
# condition_set: converted from Kd_intr, 37 °C, independent of pH
Numbers only, in kJ/mol.

Study these solved cases before continuing.
COC(=O)c1cc(S(N)(=O)=O)c(SC2CCCCC2)cc1Cl; -46.6
COC(=O)c1cc(S(N)(=O)=O)c(Cl)cc1S(=O)(=O)c1ccccc1; -55.8
COC(=O)c1cc(S(N)(=O)=O)c(Cl)cc1SCCc1ccccc1; -65.1

Can you look up ΔGintr CAVB on CAVB (Homo sapiens, UniProt Q9Y2D0) for COC(=O)c1cc(S(N)(=O)=O)c(Br)cc1S(=O)(=O)c1ccccc1 [Compound 10a] ?
-59.4

###

# target_or_test_system: UniProtKB P43166
# assay_explanation: fluorescent thermal shift assay (FTSA), CAVII
# Assay type: binding
# condition_set: converted from Kd_intr, 37 °C, independent of pH
assay_metric: ΔGintr CAVII (kJ/mol)
Give bare numbers, in kJ/mol.

COC(=O)c1cc(S(N)(=O)=O)c(Br)cc1Br [Compound 2, Methyl 2,4-dibromo-5-sulfamoyl-benzoate]; -56.3

Take each entry in turn and give its ΔGintr CAVII.
1. COC(=O)c1cc(S(N)(=O)=O)c(Cl)cc1S(=O)(=O)c1ccccc1
2. COC(=O)c1cc(S(N)(=O)=O)c(Br)cc1S(=O)(=O)c1ccccc1 [Compound 10a]
3. COC(=O)c1cc(S(N)(=O)=O)c(SC2CCCCCCCCCCC2)cc1Cl
4. COC(=O)c1cc(S(N)(=O)=O)c(Cl)cc1S(=O)(=O)c1cccc2ccccc12
5. COC(=O)c1cc(S(N)(=O)=O)c(Br)cc1Sc1ccccc1
6. COC(=O)c1cc(S(N)(=O)=O)c(SC2CCCCC2)cc1Br
7. COC(=O)c1cc(S(N)(=O)=O)c(Cl)cc1SCc1ccccc1
8. COC(=O)c1cc(S(N)(=O)=O)c(Cl)cc1Cl [Compound 1, Methyl 2,4-dichloro-5-sulfamoyl-benzoate]

[-65.2, -65.3, -50.4, -65.3, -56.4, -57.4, -57.7, -56.4]

###

Assign ΔGobs CAXIV to each entry below.
# target_or_test_system: CAXIV (Homo sapiens)
# Sequence (Q9ULX7 16-337): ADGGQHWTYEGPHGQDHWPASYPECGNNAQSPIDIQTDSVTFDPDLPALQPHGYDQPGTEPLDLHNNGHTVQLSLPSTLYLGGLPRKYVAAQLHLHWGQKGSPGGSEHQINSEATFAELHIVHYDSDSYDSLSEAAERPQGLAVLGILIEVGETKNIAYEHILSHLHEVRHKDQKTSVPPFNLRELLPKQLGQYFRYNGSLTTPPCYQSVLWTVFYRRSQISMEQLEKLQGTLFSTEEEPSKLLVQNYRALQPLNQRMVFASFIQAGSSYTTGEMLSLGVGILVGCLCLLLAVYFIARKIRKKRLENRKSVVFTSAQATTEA
# assay_explanation: fluorescent thermal shift assay (FTSA), CAXIV
# Assay type: binding
# condition_set: converted from Kd_obs, 37 °C, pH 7.0, FTSA
One number for each entry, in kJ/mol.

// solved cases for ΔGobs CAXIV follow
COC(=O)c1cc(S(N)(=O)=O)c(Br)cc1Sc1ccccc1; -46.8
COC(=O)c1cc(S(N)(=O)=O)c(SCCc2ccccc2)cc1Cl; -43.7
COC(=O)c1cc(S(N)(=O)=O)c(Cl)cc1S(=O)(=O)c1cccc2ccccc12; -49.9
COC(=O)c1cc(S(N)(=O)=O)c(Cl)cc1SC1CCCCC1; -49.2
COC(=O)c1cc(S(N)(=O)=O)c(Cl)cc1Cl [Compound 1, Methyl 2,4-dichloro-5-sulfamoyl-benzoate]; -42.4

Reported ΔGobs CAXIV for CAXIV (Homo sapiens), given COC(=O)c1cc(S(N)(=O)=O)c(SCc2ccccc2)cc1Cl ?
-43.9

###

# target_or_test_system: CAVB (Homo sapiens, UniProt Q9Y2D0)
# assay_explanation: fluorescent thermal shift assay (FTSA), CAVB
# Type: binding
# condition_set: converted from Kd_intr, 37 °C, independent of pH
assay_metric: ΔGintr CAVB

COC(=O)c1cc(S(N)(=O)=O)c(S(=O)(=O)CCc2ccccc2)cc1Cl; ≥ -40.4 kJ/mol
COC(=O)c1cc(S(N)(=O)=O)c(S(=O)(=O)C2CCCCC2)cc1Br; ≥ -41.0 kJ/mol

ΔGintr CAVB for COC(=O)c1cc(S(N)(=O)=O)c(S(=O)(=O)Cc2ccccc2)cc1Cl ?
≥ -40.4 kJ/mol

###

# target_or_test_system: CAVII (Homo sapiens)
# assay_explanation: fluorescent thermal shift assay (FTSA), CAVII
# Format: binding
# condition_set: converted from Kd_intr, 37 °C, independent of pH
assay_metric: ΔGintr CAVII (kJ/mol)
One number for each entry, in kJ/mol.

These recorded examples may help you get a feel for the data.
COC(=O)c1cc(S(N)(=O)=O)c(Cl)cc1S(=O)(=O)CCc1ccccc1; -64.7
COC(=O)c1cc(S(N)(=O)=O)c(Cl)cc1SC1CCCCC1; -62.3

Look up ΔGintr CAVII for this compound: COC(=O)c1cc(S(N)(=O)=O)c(Cl)cc1S(=O)(=O)C1CCCCC1
-67.6

###

For each record, write down the corresponding ΔGintr CAVII.
# target_or_test_system: CAVII (Homo sapiens, UniProt P43166)
# Sequence (P43166 whole entry): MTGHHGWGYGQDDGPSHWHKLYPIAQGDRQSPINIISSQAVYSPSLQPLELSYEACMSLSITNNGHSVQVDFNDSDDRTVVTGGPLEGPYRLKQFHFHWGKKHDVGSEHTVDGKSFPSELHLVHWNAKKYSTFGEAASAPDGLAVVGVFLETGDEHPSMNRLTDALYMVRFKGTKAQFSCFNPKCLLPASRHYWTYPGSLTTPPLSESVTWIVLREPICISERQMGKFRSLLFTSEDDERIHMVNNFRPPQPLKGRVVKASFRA
# assay_explanation: fluorescent thermal shift assay (FTSA), CAVII
# Format: binding
# condition_set: converted from Kd_intr, 37 °C, independent of pH

COC(=O)c1cc(S(N)(=O)=O)c(S(=O)(=O)C2CCCCC2)cc1Br; ≥ -9.94 kcal/mol
COC(=O)c1cc(S(N)(=O)=O)c(S(=O)(=O)CCc2ccccc2)cc1Cl; ≥ -9.8 kcal/mol
COC(=O)c1cc(S(N)(=O)=O)c(S(=O)(=O)C2CCCCC2)cc1Cl; ≥ -9.8 kcal/mol

Can you look up the measured ΔGintr CAVII of COC(=O)c1cc(S(N)(=O)=O)c(S(=O)(=O)Cc2ccccc2)cc1Cl for me?
≥ -9.8 kcal/mol

src = paper PMC8745178
